Data provenance: patent US11214578B2

# ASSAYED_SYSTEM: ΔTM rat FAAH (Rattus norvegicus)
# Construct: Preparation of Transmembrane Domain-Deleted Rat FAAH (ΔTM rFAAH)
# ASSAY: Fluorescent assay protocol for ΔTM rat FAAH (AAMCA substrate)
# EXPERIMENTAL_CONTEXT: 15 min preincubation, read-out: IC50 rFAAH
I'd be grateful if you could share measured IC50 for these entries.

O=C(Oc1cccc(N2CCS(=O)(=O)CC2)c1)N1CCN(Cc2ccc3ccccc3n2)CC1
110 to 1000 nM

For each entry beneath this line, provide reported IC50.
1. CC1CN(c2ccccc2)CCN1C(=O)Oc1cccc(N2CCS(=O)(=O)CC2)c1 (centres unmarked)
2. N#Cc1cccc(OC(=O)N2CCC(C(c3ccccc3)c3ccccc3)CC2)c1
3. CC1CN(C(=O)n2cnc(-c3ccccc3)c2)CCN1c1cccc(OCc2ccccc2)c1 (centres unmarked)
4. Cc1ccc(S(=O)(=O)N2CCN(C(=O)Oc3ccc(-c4ccc(F)cc4)cc3O)CC2)cc1
5. O=C1CC2(CCC(C(=O)n3cnc(Br)c3)CC2)Oc2ccccc21 (centres unmarked)

**A:**
> 1000 nM
10 to 100 nM
10 to 100 nM
> 1000 nM
10 to 100 nM

Each of the following entries comes with a recorded value; kindly state IC50 for each.
1. CC1CN(C(=O)n2cnc(-c3ccccc3)c2)CCN1c1ccccc1 (centres unmarked)
2. O=C(N1CC(N2CCC(Cc3ccccc3)CC2)C1)n1cnc(-c2ccccc2)c1

**A:**
1: 10 to 100 nM; 2: 10 to 100 nM

====

Exercise: state measured IC50 for each of the molecules provided.
# ASSAYED_SYSTEM: ΔTM rat FAAH (Rattus norvegicus, UniProt P97612)
# Construct: Preparation of Transmembrane Domain-Deleted Rat FAAH (ΔTM rFAAH)
# Sequence (P97612 30-579 limits assumed): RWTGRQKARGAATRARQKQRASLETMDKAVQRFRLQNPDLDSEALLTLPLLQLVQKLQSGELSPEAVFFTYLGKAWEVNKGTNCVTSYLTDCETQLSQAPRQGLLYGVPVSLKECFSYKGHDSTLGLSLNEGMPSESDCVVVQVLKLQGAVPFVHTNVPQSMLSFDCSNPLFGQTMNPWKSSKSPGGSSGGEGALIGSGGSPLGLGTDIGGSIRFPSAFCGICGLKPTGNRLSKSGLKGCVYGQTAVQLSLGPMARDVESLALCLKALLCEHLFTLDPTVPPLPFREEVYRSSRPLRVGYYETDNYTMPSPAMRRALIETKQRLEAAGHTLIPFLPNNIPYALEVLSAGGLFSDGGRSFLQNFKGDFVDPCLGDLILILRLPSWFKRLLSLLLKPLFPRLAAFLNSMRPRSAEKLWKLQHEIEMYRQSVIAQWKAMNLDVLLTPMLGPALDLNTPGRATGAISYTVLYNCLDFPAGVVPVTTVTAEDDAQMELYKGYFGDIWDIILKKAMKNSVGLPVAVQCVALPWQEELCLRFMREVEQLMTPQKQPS
# ASSAY: Fluorescent assay protocol for ΔTM rat FAAH (AAMCA substrate)
# EXPERIMENTAL_CONTEXT: 15 min preincubation, read-out: IC50 rFAAH
# Protocol: Procedure was followed as described for hMAGL, except that arachidonoyl-methyl coumarin amide (AAMCA) was used as fluorigenic substrate. […] The fluorescence reading at the 3 hour time point (linear enzyme kinetics) was used to calculate percent inhibition based on control assays without inhibitor present. All FAAH assays were performed in triplicate for each inhibitor concentration, and IC50 values determined using Prizm software (GraphPad Software, Inc.).

N#Cc1cccc(OC(=O)N2CCN(C(c3ccc(F)cc3)c3ccc(F)cc3)CC2)c1
> 1000 nM
N#Cc1cccc(-c2cccc(NC(=O)N3CCN(Cc4cccc(-c5ccccc5)c4)CC3)c2)c1
10 to 100 nM

Look up IC50 for the entries below, preserving their order.
1. O=C(N1C[C@@H]2C[C@H]1CN2Cc1cccc(-c2ccccc2)c1)n1cnc(Br)c1
2. CC(c1ccccc1)N1CCN(C(=O)Oc2cccc(C#N)c2)CC1 (stereo not drawn)
3. N#Cc1cccc(-c2cccc(NC(=O)N3C[C@@H]4C[C@H]3CN4Cc3ccc4ccccc4n3)c2)c1
4. O=C(Oc1ccc(Cl)cc1Cl)N1CC(OCc2ccc(Cl)cc2)C1
5. N#Cc1cc(O)cc(OC(=O)N2CCC(C(c3ccccc3)c3ccccc3)CC2)c1
6. CC1CN(c2ccccc2)CCN1C(=O)n1cnc(-c2ccccc2)c1 (stereo not drawn)

**A:**
1. 10 to 100 nM
2. 10 to 100 nM
3. > 1000 nM
4. 10 to 100 nM
5. > 1000 nM
6. 10 to 100 nM

# batch size: 3; output IC50 per entry
1. N#Cc1cccc(OC(=O)N2CCC(OC(c3ccc(Cl)cc3)c3cccnc3Cl)CC2)c1 (stereo not drawn)
2. NC(=O)c1cccc(-c2cccc(NC(=O)N3CCN(c4ccccn4)CC3)c2)c1
3. NC(=O)c1cccc(-c2cccc(NC(=O)N3CCC(c4ccccc4)CC3)c2)c1

**A:**
["10 to 100 nM", "10 to 100 nM", "10 to 100 nM"]

====

# ASSAYED_SYSTEM: Human FAAH (MBPΔTMhFAAH) (Homo sapiens, UniProt O00519)
# Sequence (O00519 30-579 limits assumed, stated change not applied): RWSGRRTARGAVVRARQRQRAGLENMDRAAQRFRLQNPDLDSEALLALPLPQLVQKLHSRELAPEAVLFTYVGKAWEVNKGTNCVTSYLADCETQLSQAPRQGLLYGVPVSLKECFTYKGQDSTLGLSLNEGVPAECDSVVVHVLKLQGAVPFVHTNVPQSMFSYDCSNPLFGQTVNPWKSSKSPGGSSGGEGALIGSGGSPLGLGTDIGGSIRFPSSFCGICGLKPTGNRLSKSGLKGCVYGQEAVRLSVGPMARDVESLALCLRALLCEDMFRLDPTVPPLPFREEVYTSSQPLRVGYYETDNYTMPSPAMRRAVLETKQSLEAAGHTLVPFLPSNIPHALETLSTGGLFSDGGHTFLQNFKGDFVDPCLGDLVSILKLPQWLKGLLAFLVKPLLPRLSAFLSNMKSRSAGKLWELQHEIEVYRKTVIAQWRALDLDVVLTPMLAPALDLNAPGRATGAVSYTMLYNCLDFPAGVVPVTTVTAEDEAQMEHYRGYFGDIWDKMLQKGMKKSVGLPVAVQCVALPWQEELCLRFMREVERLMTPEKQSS
# ASSAY: Fluorescent assay protocol for hFAAH
# EXPERIMENTAL_CONTEXT: human FAAH (MBP fusion, ΔTM), procedure as for rFAAH
pIC50: −log10 of the molar value.
TEST_READOUT: pIC50

NC(=O)c1cccc(OC(=O)N2CC(OCc3ccc(Cl)cc3)C2)c1
7.00 to 8.00
O=C(Oc1cccc(C(F)(F)F)c1)N1CC(OCc2ccc(Cl)cc2)C1
7.00 to 8.00
N#Cc1cccc(OC(=O)N2CCC(=C(c3ccccc3)c3ccccc3)CC2)c1
7.00 to 8.00
O=C(N1CCN(C(c2ccc(F)cc2)c2ccc(F)cc2)CC1)n1cnc(-c2ccccc2)c1
6.00 to 6.96
O=C(N1CC(N2CCC(c3ccccc3)CC2)C1)n1cccn1
7.00 to 8.00

I would be grateful if you could provide pIC50 for each of the following entries.
1. O=C(N1C[C@@H]2C[C@H]1CN2c1cccc(F)c1)n1cnc(-c2ccccc2)c1
2. N#Cc1ccc(F)c(OC(=O)N2CCC(C(c3ccccc3)c3ccccc3)CC2)c1

**A:**
1: 6.00 to 6.96; 2: < 6.00

====

# ASSAYED_SYSTEM: ΔTM rat FAAH (Rattus norvegicus)
# Construct: Preparation of Transmembrane Domain-Deleted Rat FAAH (ΔTM rFAAH)
# ASSAY: Fluorescent assay protocol for ΔTM rat FAAH (AAMCA substrate)
# EXPERIMENTAL_CONTEXT: 15 min preincubation, read-out: IC50 rFAAH
TEST_READOUT: IC50

Look up IC50 for the entries below, preserving their order.
1. N#Cc1cccnc1OC(=O)N1CCN(C2c3ccccc3-c3ccccc32)CC1
2. N#Cc1cccc(-c2cccc(NC(=O)N3CCN(Cc4ccc5ccccc5n4)CC3)c2)c1
3. N#Cc1cccc(OC(=O)N2CCC(=C(c3ccccc3)c3ccccc3)CC2)c1
4. N#Cc1cc(O)cc(OC(=O)N2CCN(C(c3ccccc3)c3ccccc3)CC2)c1
5. NC(=O)c1cccc(-c2cccc(NC(=O)N3CCN(Cc4ccc(-c5ccccc5)cc4)CC3)c2)c1
6. N#Cc1ccc(F)c(OC(=O)N2CCC(C(c3ccccc3)c3ccccc3)CC2)c1
7. O=C(N1CCN(C(c2ccccc2)c2ccccc2)CC1)n1nnnc1Cc1ccccc1
8. CC(C)C(c1ccccc1)N1CCN(C(=O)Oc2cccc(C#N)c2)CC1 (centres unmarked)

**A:**
> 1000 nM
10 to 100 nM
10 to 100 nM
110 to 1000 nM
10 to 100 nM
> 1000 nM
10 to 100 nM
> 1000 nM

Give IC50 for each listed item.
1. C[C@H]1CN(C(=O)Nc2cccc(-c3cccc(C#N)c3)c2)CCN1Cc1ccc2ccccc2n1
2. N#Cc1ccnc(OC(=O)N2CCN(C3c4ccccc4-c4ccccc43)CC2)c1
3. N#Cc1cccc(OC(=O)N2CCN(C(c3ccccc3)C3CCCC3)CC2)c1 (centres unmarked)
4. O=C(N1CC(N2CCC(c3ccccc3)CC2)C1)n1cnc2ccccc21
5. O=C(N1C[C@@H]2C[C@H]1CN2c1cccc(F)c1)n1cnc(-c2ccccc2)c1
6. NC(=O)c1cccc(-c2cccc(NC(=O)N3CCN(Cc4cccc(Oc5ccccc5)c4)CC3)c2)c1
7. O=C(N1CC(OCc2ccc(Br)cc2)C1)n1cnc2ccccc21

**A:**
110 to 1000 nM
> 1000 nM
10 to 100 nM
10 to 100 nM
110 to 1000 nM
10 to 100 nM
10 to 100 nM

Batch request: IC50 for each of the following molecules.
1. O=C(Oc1cccc(N2CCS(=O)(=O)CC2)c1)N1CCN(c2ccccc2)CC1
2. N#Cc1cccc(OC(=O)N2CCN(C(c3ccccc3)c3ccccc3)CC2)c1
3. COC(=O)c1ncn(C(=O)N2CCC(OC(c3ccc(F)cc3)c3ccc(F)cc3)CC2)n1
4. O=C(N1CC(N2CCC(c3ccccc3)CC2)C1)n1cncn1
5. O=C(N1C[C@@H]2C[C@H]1CN2c1ccccn1)n1cnc(-c2ccccc2)c1
6. O=C(Oc1cccc(-c2cccnc2)c1)N1CC(OCc2ccc(Cl)cc2)C1
7. C[C@H]1CN(Cc2cccc(Oc3ccccc3)c2)CCN1C(=O)Nc1cncc(-c2cccc(C#N)c2)c1
8. O=C(Oc1cccc(Cl)n1)N1CCN(C(c2ccccc2)c2ccccc2)CC1

**A:**
110 to 1000 nM
10 to 100 nM
> 1000 nM
10 to 100 nM
10 to 100 nM
10 to 100 nM
> 1000 nM
110 to 1000 nM
